Each item that follows carries a reported inhibition.
- Target Under Test: Voltage-dependent T-type calcium channel subunit alpha-1G (Homo sapiens, UniProt O43497)
- Sequence (O43497 whole entry): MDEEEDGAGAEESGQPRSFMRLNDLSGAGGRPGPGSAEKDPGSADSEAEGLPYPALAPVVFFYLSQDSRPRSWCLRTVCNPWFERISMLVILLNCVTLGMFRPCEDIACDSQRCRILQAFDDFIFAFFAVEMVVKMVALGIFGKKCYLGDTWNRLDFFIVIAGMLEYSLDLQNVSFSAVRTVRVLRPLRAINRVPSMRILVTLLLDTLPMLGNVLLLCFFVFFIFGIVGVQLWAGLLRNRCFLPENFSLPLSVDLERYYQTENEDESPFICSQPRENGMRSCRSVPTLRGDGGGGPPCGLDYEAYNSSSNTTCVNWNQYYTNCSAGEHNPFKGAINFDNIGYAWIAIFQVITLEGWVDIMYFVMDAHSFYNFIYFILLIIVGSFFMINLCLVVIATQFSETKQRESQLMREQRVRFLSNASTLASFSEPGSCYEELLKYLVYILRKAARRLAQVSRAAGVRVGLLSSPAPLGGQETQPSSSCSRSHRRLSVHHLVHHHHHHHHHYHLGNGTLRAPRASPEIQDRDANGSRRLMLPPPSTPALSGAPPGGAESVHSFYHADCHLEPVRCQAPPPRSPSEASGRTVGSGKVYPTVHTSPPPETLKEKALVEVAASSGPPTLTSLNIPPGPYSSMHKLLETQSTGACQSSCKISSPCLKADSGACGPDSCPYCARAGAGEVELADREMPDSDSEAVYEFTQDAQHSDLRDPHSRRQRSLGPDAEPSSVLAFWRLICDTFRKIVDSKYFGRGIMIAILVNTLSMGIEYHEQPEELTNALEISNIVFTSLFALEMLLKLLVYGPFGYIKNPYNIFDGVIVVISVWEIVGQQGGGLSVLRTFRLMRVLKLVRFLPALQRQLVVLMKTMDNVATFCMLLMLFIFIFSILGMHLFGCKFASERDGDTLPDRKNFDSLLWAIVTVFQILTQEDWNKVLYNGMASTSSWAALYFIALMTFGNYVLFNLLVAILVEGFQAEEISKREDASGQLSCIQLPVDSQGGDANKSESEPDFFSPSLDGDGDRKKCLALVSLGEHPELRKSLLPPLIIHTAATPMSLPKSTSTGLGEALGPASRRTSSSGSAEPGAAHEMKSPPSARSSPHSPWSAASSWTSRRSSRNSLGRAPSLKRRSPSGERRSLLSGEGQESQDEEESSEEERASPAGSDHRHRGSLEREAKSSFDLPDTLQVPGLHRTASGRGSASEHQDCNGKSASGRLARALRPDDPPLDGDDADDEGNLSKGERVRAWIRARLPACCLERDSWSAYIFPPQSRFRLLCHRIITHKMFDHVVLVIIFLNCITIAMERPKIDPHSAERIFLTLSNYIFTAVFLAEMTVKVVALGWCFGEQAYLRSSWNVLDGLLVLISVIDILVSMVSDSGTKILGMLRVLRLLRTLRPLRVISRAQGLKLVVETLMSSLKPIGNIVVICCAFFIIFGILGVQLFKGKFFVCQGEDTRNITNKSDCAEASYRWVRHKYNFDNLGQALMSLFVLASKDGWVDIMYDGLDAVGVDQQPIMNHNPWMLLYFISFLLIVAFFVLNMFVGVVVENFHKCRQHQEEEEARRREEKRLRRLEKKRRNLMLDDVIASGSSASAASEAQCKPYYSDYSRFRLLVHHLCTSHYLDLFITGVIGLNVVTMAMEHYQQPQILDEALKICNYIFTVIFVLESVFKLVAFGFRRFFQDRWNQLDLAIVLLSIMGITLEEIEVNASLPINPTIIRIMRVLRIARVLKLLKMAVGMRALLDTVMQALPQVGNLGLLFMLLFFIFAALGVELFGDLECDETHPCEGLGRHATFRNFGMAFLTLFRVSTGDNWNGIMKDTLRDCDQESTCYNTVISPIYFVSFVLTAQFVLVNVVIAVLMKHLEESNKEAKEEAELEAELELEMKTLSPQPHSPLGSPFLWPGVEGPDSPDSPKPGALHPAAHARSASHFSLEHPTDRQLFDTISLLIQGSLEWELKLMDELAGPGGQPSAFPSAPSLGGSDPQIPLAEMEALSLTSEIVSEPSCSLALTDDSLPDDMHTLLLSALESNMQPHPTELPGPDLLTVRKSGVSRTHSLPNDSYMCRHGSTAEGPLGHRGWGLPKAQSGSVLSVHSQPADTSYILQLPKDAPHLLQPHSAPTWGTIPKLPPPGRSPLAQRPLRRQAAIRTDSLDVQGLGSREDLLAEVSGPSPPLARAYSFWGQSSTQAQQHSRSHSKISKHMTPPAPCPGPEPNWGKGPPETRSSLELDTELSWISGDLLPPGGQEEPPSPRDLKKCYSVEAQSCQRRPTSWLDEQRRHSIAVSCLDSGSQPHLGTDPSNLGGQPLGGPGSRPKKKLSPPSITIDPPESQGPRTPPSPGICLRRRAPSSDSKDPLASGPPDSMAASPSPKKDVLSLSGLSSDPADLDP
- Test Description: Inhibition of T type calcium channel subunit alpha-1G expressed in HEK293 cells assessed as effect on T-type calcium currents at 10 uM by patch clamp method
- Format: cell-based
Observable: inhibition (%)

INSERT INTO assay_data (smiles_input, observable, recorded_result) VALUES
  ('O=C(CCCN1CCN(c2ccc(F)cc2)CC1)Nc1ccc(Cl)cc1', 'inhibition', 76.1),
  ('O=C(CCCN1CCN(Cc2ccc3c(c2)OCO3)CC1)Nc1ccc(Cl)cc1Cl', 'inhibition', 88.1),
  ('O=C(CCCN1CCN(Cc2ccc(Cl)c(Cl)c2)CC1)Nc1ccc(Cl)cc1Cl', 'inhibition', 94.4),
  ('O=C(CCCN1CCN(Cc2ccc3c(c2)OCO3)CC1)Nc1ccc(Cl)cc1', 'inhibition', 81.9),
  ('O=C(CCCN1CCN(Cc2cccc(Cl)c2)CC1)Nc1ccc(Cl)cc1', 'inhibition', 92.4),
  ('O=C(CCCN1CCN(c2ccccc2Cl)CC1)Nc1ccc(Cl)cc1', 'inhibition', 60.5),
  ('COc1cccc(N2CCN(CCCC(=O)Nc3ccc(Cl)cc3Cl)CC2)c1', 'inhibition', 80.3),
  ('O=C(CCCCN1CCN(Cc2cccc(Cl)c2)CC1)N1CCN(c2ccccc2F)CC1', 'inhibition', 87.1),
  ('O=C(CCCN1CCN(c2ccccc2)CC1)Nc1ccc(Cl)cc1Cl', 'inhibition', 76.2),
  ('O=C(CCCN1CCN(c2cccc(Cl)c2)CC1)Nc1ccc(Cl)cc1Cl', 'inhibition', 95.4),
  ('O=C(CCCCN1CCN(Cc2ccc(Cl)cc2)CC1)N1CCN(c2ccccc2F)CC1', 'inhibition', 89.7),
  ('O=C(CCCCN1CCN(Cc2ccc(Cl)c(Cl)c2)CC1)Nc1ccccc1Cl', 'inhibition', 91),
  ('O=C(CCCN1CCN(Cc2ccc(Cl)cc2)CC1)Nc1ccc(Cl)cc1Cl', 'inhibition', 91.1),
  ('O=C(CCCN1CCN(Cc2c(F)cccc2Cl)CC1)Nc1ccc(Cl)cc1', 'inhibition', 72.8),
  ('COc1cccc(N2CCN(CCCC(=O)Nc3ccc(Cl)cc3)CC2)c1', 'inhibition', 84.1),
  ('COc1ccccc1N1CCN(CCCC(=O)Nc2ccc(Cl)cc2Cl)CC1', 'inhibition', 79.1),
  ('COc1ccccc1N1CCN(CCCC(=O)Nc2ccc(Cl)cc2)CC1', 'inhibition', 84.3),
  ('O=C(CCCCN1CCN(Cc2ccc(Cl)cc2)CC1)N1CCN(c2ccccc2)CC1', 'inhibition', 79.7),
  ('O=C(CCCN1CCN(c2ccccc2F)CC1)Nc1ccc(Cl)cc1', 'inhibition', 79.2),
  ('O=C(CCCN1CCN(Cc2ccccc2)CC1)Nc1ccc(Cl)cc1Cl', 'inhibition', 79.3),
  ('O=C(CCCN1CCN(c2ccccc2)CC1)Nc1ccc(Cl)cc1', 'inhibition', 75.1),
  ('O=C(CCCN1CCN(Cc2cccc(Cl)c2)CC1)Nc1ccc(Cl)cc1Cl', 'inhibition', 87.3),
  ('O=C(CCCN1CCN(c2ccc(Cl)cc2)CC1)Nc1ccc(Cl)cc1', 'inhibition', 94.6),
  ('O=C(CCCN1CCN(Cc2c(F)cccc2Cl)CC1)Nc1ccc(Cl)cc1Cl', 'inhibition', 89.6),
  ('O=C(CCCCN1CCN(c2cccc(Cl)c2)CC1)Nc1ccccc1Cl', 'inhibition', 93.2),
  ('O=C(CCCN1CCN(Cc2ccccc2)CC1)Nc1ccc(Cl)cc1', 'inhibition', 78),
  ('O=C(CCCN1CCN(Cc2ccc(Cl)cc2)CC1)Nc1ccc(Cl)cc1', 'inhibition', 92.6),
  ('O=C(CCCCN1CCN(Cc2ccc(Cl)c(Cl)c2)CC1)N1CCN(c2ccccc2)CC1', 'inhibition', 73.8);
